System: KM-20L2
Test: NCI tumour cell line growth inhibition, 48 h
Calls of active or inactive are those of the source. No stated cut-off is given here; in the data, active = GI50 up to about 1.1 µM and inactive = higher.
experimental-readout: GI50

{"columns": ["compound", "recorded-value"],
 "data": [
  ["CCCCc1c2c(nc3c1CCC/C3=C\\c1ccccc1)C(=O)C(CN(C)C)CC2 (stereo unspecified)", "17.8 µM (inactive)"],
  ["CCOC(=O)c1ccc(N2C(=O)/C(=C\\OC)c3ccccc3C2=O)cc1", "37 µM (inactive)"],
  ["CCOC(OCC)C(CC)[Se]c1ccccc1[N+](=O)[O-] (stereo unspecified)", "1.96 µM (inactive)"],
  ["NC1c2ccccc2Nc2ccccc21", "3.76 µM (inactive)"],
  ["COc1ccc(O)c2c1C(=O)CCCC2=O", "> 100 µM (inactive)"],
  ["CN(C)CC/C(=N\\Nc1ccc([N+](=O)[O-])cc1)c1ccccc1", "4.33 µM (inactive)"]
]}

* * *

System: OVCAR-4
Test: NCI tumour cell line growth inhibition, 48 h
Active and inactive are the calls of the source. No stated cut-off is given here; in the data, active = GI50 up to about 1.1 µM and inactive = higher.

{"columns": ["compound", "GI50"],
 "data": [
  ["Cc1nc(-c2ccccc2)cn2c1nc1ccccc12", "20.9 µM (inactive)"],
  ["CN1CCN(c2cc3nc4cc(O)cc(O)c4c(O)c3cc2N)CC1", "27.4 µM (inactive)"],
  ["CCCCCCCCCCCc1cc(=O)c2c(O)cccc2o1", "> 100 µM (inactive)"],
  ["C(=C\\N1CCCCC1)/c1nnnn1-c1ccccc1", "33.4 µM (inactive)"],
  ["CC(C)(C)[Si](C)(C)OCC1C=CC(n2cnc3c(N)ncnc32)O1 (stereo not drawn)", "32.9 µM (inactive)"],
  ["CC(O)C1OC(O)C2OC(C)(C)OC12 (stereo not drawn)", "> 100 µM (inactive)"],
  ["O=C1CCCCC12CCC/C2=N\\O (stereo not drawn)", "> 100 µM (inactive)"],
  ["CC(C)(C)n1c(=O)n2n(c1=O)Cc1cccc3cccc(c13)C2", "19.6 µM (inactive)"],
  ["ClCCCN1CCCCC1CCl (stereo not drawn)", "> 100 µM (inactive)"],
  ["O[C@]12c3ccccc3C1CCCCC2N1CCOCC1 (stereo partly drawn)", "> 100 µM (inactive)"],
  ["CCC(C#N)N(Cc1cccc(CN(C(C)=O)C(C#N)CC)c1)C(C)=O (stereo not drawn)", "31.4 µM (inactive)"],
  ["COCN/C(N)=N/C#N", "> 100 µM (inactive)"],
  ["COc1cc2c(cc1OC)C1Cc3cc(OC)c(OC)cc3C(C2)O1", "> 100 µM (inactive)"],
  ["C1=C2C3=[N+](CCCCC3)CC2Cc2ccsc21 (stereo not drawn)", "43.4 µM (inactive)"],
  ["CCC(=O)Nc1ccc(/N=C/c2cccc(Oc3ccccc3)c2)cc1", "55.3 µM (inactive)"],
  ["NC(CCCNCc1ccccc1)C(=O)O (stereo not drawn)", "> 100 µM (inactive)"],
  ["N#CCCN(c1ccc(/C=N/c2cccc([N+](=O)[O-])c2)cc1)S(=O)(=O)c1ccccc1", "> 100 µM (inactive)"],
  ["Cc1ccccc1C(CCCO)C(=O)O (stereo not drawn)", "> 100 µM (inactive)"],
  ["Cc1sc(/N=C/c2c[nH]c3ccccc23)c(C#N)c1C", "35.2 µM (inactive)"],
  ["O=C(Nc1ccccc1)N1C(c2ccccc2)=N[C@@H](c2ccccc2)[C@@H]1c1ccccc1", "17.6 µM (inactive)"],
  ["Cc1cc(C)cc(Nc2nnc3n2S(=O)(=O)c2cc(C)c(Cl)cc2S3)c1", "8.69 µM (inactive)"],
  ["CCOC(=O)NC(=O)c1cn(CCN2CCN(C(=O)CCCCCCCCCCC(=O)N3CCN(CCn4cc(C(=O)NC(=O)OCC)c(=O)[nH]c4=O)CC3)CC2)c(=O)[nH]c1=O", "> 100 µM (inactive)"],
  ["COC(=O)C1=C(O)C(C(=O)OC)[C@]2(O)[C@H](C(=O)OC)[C@H]1C[C@@H](c1ccc(OC)cc1)[C@H]2C(=O)OC (stereo partly drawn)", "19.8 µM (inactive)"]
]}

Source listed as ChEMBL document CHEMBL1201862.
